Recorded IC50, one value per entry.
Biological target: human sodium channels Nav 1.8 (Homo sapiens, UniProt Q9Y5Y9)
Sequence (Q9Y5Y9 whole entry): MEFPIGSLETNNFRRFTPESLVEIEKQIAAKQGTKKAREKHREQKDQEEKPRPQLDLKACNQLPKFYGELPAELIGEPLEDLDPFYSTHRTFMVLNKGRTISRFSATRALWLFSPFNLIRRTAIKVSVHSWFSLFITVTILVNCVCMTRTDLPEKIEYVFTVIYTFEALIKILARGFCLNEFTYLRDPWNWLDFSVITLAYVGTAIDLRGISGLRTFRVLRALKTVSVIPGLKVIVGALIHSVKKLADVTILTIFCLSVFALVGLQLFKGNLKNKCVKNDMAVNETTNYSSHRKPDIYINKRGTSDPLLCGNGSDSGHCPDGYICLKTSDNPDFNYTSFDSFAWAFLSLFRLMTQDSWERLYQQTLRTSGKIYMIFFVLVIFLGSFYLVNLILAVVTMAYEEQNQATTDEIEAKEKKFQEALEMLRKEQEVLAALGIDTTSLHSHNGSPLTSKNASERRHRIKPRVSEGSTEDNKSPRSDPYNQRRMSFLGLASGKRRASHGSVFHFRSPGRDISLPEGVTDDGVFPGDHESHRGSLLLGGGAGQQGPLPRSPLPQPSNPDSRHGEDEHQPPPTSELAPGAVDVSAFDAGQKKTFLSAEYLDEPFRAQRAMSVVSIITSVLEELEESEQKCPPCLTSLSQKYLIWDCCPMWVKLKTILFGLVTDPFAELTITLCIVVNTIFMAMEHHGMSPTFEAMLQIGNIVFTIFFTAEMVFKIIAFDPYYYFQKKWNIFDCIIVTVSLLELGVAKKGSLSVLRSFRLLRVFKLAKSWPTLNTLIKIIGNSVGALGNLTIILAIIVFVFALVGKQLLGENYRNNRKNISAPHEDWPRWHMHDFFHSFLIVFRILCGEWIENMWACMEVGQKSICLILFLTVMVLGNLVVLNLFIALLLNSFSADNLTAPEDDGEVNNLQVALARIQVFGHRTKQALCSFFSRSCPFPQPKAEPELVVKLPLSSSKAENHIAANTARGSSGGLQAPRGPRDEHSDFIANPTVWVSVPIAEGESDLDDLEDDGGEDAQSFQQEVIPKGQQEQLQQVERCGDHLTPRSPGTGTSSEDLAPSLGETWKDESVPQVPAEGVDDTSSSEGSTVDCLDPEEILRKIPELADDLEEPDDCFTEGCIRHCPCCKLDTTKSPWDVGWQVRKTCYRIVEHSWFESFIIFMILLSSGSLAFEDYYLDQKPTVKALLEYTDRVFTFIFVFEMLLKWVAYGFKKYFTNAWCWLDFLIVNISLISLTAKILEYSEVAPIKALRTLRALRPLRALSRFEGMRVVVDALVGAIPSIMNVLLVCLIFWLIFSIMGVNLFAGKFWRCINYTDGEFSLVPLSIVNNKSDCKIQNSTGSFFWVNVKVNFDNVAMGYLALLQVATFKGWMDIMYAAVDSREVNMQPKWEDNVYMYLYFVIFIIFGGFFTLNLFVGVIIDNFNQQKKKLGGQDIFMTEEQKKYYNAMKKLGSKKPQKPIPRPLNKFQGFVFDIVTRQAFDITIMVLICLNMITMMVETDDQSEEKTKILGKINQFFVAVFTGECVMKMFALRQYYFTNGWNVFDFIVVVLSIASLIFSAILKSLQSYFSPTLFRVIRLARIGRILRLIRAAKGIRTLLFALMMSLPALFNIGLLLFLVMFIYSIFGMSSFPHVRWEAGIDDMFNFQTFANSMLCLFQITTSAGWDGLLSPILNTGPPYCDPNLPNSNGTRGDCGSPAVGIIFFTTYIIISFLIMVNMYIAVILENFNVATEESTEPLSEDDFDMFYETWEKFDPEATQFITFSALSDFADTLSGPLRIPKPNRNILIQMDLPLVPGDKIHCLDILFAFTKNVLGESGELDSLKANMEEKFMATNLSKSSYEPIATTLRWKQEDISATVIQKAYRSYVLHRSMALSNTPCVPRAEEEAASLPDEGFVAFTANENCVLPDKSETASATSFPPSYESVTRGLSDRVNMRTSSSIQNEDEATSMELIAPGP
Assay: Automated whole-cell voltage-clamp (ScreenPatch 384P) sodium current block in CHO cells expressing Nav 1.8
Conditions: CHO cells stably expressing human Nav 1.8; whole cell patch clamp, inactivation step -40 mV 8 s, test step 10 mV (TP1A), room temperature; mean where tested in two or more assays; read-out: Nav1.8 IC50
Protocol: Biological assays were performed on Chinese hamster ovary (CHO) cells that express human sodium channels Nav 1.8 or Nav 1.7 in a stable manner. The experimental protocol voltage-clamp using the whole cell configuration was established on the automated ScreenPatch© 384P platform (SP384PE, Nanion Technologies, Livingston, NJ) and the results were recorded with a Nanion 384-well Patch Clamp chip (NPC) (Nanion Technologies, Livingston, NJ). […]

| compound | tested-on | IC50 |
| --- | --- | --- |
| COc1cc(CNNC(=O)c2cncc(-c3ccc(OC(F)F)cc3)n2)cc(OC)c1 [Compound 7] | human sodium channels Nav 1.8 (Homo sapiens, UniProt Q9Y5Y9) | 500 to 1000 nM |
| CCOc1ccc(-c2cncc(C(=O)NN[C@@H](C)c3cc(OC)cc(OC)c3)n2)cc1 (single isomer, unassigned) [Compound 24] | human sodium channels Nav 1.8 (Homo sapiens, UniProt Q9Y5Y9) | > 1000 nM |
| CCOc1ccc(-c2cncc(C(=O)NN3CCCc4ccc(OC)cc4C3)n2)cc1 [Compound 11] | human sodium channels Nav 1.8 (Homo sapiens, UniProt Q9Y5Y9) | > 1000 nM |

The compound listed as COc1cc(CNNC(=O)c2cncc(-c3ccc(OC(C)C)cc3)n2)cc(OC)c1 [Compound 3] has a reported IC50 of < 500 nM

The compound listed as CCOc1ccc(-c2cncc(C(=O)NN(C)Cc3cc(OC)cc(OC)c3)n2)cc1 [Compound 17] has a reported IC50 of > 1000 nM

The compound listed as COc1ccc(-c2cncc(C(=O)NNCc3cc(OC)cc(OC)c3)n2)cc1 [Compound 1] has a reported IC50 of 500 to 1000 nM

The compound listed as CCOc1ccc(-c2cncc(C(=O)NNCc3ccccc3F)n2)cn1 [Compound 39] has a reported IC50 of < 500 nM

The compound listed as CCOc1ccc(-c2cncc(C(=O)NNCc3cc(OC)cc(OC)c3)n2)c(C)n1 [Compound 41] has a reported IC50 of 500 to 1000 nM

---

Target: human sodium channels Nav 1.8 (Homo sapiens, UniProt Q9Y5Y9)
Test: Automated whole-cell voltage-clamp (ScreenPatch 384P) sodium current block in CHO cells expressing Nav 1.8
Conditions: CHO cells stably expressing human Nav 1.8; whole cell patch clamp, inactivation step -40 mV 8 s, test step 10 mV (TP1A), room temperature; mean where tested in two or more assays; read-out: Nav1.8 IC50
Recorded IC50, one value per entry.

| compound | attribute-measured | result-value |
| --- | --- | --- |
| O=C(NNCc1ccc(Cl)cc1)c1cncc(-c2ccc(OC3CC3)cc2)n1 [Compound 4] | IC50 | > 1000 nM |
| CCOc1ccc(-c2cncc(C(=O)NN3CCc4ccc(OC)cc4C3)n2)cc1 [Compound 45] | IC50 | < 500 nM |
| CCOc1ccc(-c2cncc(C(=O)NNCc3cc(OC)ccc3C)n2)cn1 [Compound 33] | IC50 | < 500 nM |
| CCOc1ccc(-c2cnnc(C(=O)NNCc3ccccc3F)c2)cc1 [Compound 47] | IC50 | > 1000 nM |
| CCOc1ccc(-c2cncc(C(=O)NNCc3cc(OC)cnc3F)n2)cn1 [Compound 31] | IC50 | > 1000 nM |

Per the reported human sodium channels Nav 1.8 (Homo sapiens, UniProt Q9Y5Y9) data, CCOc1ccc(-c2ccnc(C(=O)NNCc3ccccc3F)c2)cc1 [Compound 48] has IC50 of > 1000 nM

Per the reported human sodium channels Nav 1.8 (Homo sapiens, UniProt Q9Y5Y9) data, CCOc1ccc(-c2cncc(C(=O)NN[C@H](C)c3cc(OC)cc(OC)c3)n2)cc1 (single isomer, unassigned) [Compound 25] has IC50 of 500 to 1000 nM

Per the reported human sodium channels Nav 1.8 (Homo sapiens, UniProt Q9Y5Y9) data, CCOc1ccc(-c2cncc(C(=O)NNCc3cc(OC)ccc3F)n2)cc1 [Compound 15] has IC50 of < 500 nM
